Molecular target: human SGLT1 (Homo sapiens, UniProt P13866)
Construct: Full-length human SGLT1 cDNA on pDream2.1 expression vector
Sequence (P13866 1-664): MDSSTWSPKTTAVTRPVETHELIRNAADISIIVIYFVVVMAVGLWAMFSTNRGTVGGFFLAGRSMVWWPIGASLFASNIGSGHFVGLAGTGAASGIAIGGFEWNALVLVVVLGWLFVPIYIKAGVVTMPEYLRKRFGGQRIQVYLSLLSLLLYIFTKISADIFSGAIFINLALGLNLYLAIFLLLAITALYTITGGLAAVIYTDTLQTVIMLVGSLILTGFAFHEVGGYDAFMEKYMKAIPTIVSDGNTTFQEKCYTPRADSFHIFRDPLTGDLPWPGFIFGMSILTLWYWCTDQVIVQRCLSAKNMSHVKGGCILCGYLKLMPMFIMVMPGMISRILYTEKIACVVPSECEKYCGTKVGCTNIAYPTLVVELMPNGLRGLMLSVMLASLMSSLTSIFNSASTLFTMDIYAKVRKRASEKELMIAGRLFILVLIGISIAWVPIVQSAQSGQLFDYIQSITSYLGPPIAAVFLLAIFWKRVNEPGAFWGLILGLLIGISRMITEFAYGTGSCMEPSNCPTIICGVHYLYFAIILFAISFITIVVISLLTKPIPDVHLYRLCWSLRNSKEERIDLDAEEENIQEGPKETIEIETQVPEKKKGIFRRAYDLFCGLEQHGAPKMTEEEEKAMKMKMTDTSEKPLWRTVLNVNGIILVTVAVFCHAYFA
Test: Methyl-α-D-[U-14C]glucopyranoside uptake assay, SGLT1
Details: COS-7 cells transfected with human SGLT1; sodium-dependent uptake, 2 h incubation
quantityMeasured: IC50

compound	targetEntity	IC50
CCc1ccc(Cc2cc3c(cc2Cl)C(OC)C[C@]32O[C@H](CO)[C@@H](O)[C@H](O)[C@H]2O)cc1 (stereo partly shown)	human SGLT1 (Homo sapiens, UniProt P13866)	> 10 µM
CCOc1ccc(Cc2ccc3c(c2)[C@]2(OC3)O[C@H](CO)[C@@H](O)[C@H](O)[C@H]2O)cc1	human SGLT1 (Homo sapiens, UniProt P13866)	> 10 µM
CCc1ccc(Cc2cc3c(cc2Cl)C(F)C[C@]32O[C@H](CO)[C@@H](O)[C@H](O)[C@H]2O)cc1 (stereo partly shown)	human SGLT1 (Homo sapiens, UniProt P13866)	> 10 µM

Then there is this compound:
Exercise: Recall and state the measured IC50 for CCc1ccc(Cc2cc3c(cc2Cl)CO[C@]32O[C@H](COC(C)=O)[C@@H](O)[C@H](O)[C@H]2O)cc1 .
Solution: 1 to 10 µM
